target_entity: Recombinant MAO-A (Homo sapiens, UniProt P21397)
Sequence (P21397 whole entry): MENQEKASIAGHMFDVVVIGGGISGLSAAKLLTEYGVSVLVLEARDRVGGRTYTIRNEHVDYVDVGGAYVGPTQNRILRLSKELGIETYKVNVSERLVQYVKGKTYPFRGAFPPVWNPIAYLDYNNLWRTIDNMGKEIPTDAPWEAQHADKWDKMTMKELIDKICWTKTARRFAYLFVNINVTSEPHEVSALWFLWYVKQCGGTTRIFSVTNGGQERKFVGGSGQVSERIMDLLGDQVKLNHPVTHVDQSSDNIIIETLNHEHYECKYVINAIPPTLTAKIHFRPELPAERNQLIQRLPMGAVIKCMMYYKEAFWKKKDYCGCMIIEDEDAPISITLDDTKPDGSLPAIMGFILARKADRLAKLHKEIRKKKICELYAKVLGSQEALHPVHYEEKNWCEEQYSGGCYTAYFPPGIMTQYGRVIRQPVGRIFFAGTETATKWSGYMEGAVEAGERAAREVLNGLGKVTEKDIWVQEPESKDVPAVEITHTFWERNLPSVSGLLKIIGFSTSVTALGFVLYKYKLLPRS
measurement_description: IC50 determination against other human amine oxidases
pIC50: −log10 of the molar value.
readout: pIC50

Cl.Cl.NC/C=C(\F)CS(=O)(=O)c1cccc2cccnc12.O [PXS-5505] : < 4.52

----------
measurement_description: 3D cell viability assay (MTS, collagen)
Format: cell-based, mouse
condition: mouse, KPC cancer cells (CCs) embedded in polymerized collagen (3D), KPC CC; PXS-5505 100 (unit inferred); replicates
readout: viability (%)

Cl.Cl.NC/C=C(\F)CS(=O)(=O)c1cccc2cccnc12.O [PXS-5505] : 96.7

----------
measurement_description: Plasma concentration profile after oral PXS-5505 30 mg/kg (Extended Data Fig. 3f)
Type: in vivo, mice
condition: mouse, plasma; single oral dose 30 mg kg−1; read-out: calculated half-life (plasma) (converted)
readout: half-life (h)

Cl.Cl.NC/C=C(\F)CS(=O)(=O)c1cccc2cccnc12.O : 1
